# System: DS-PAMPA, 20% ACN buffer, UV absorbance, 30 min
# assayInfo: artificial-membrane permeation in acetonitrile buffer – biophysical, double-sink PAMPA, 20% ACN buffer, pH 5.0/6.2/7.4, ADME assay for GPR30 and estrogen receptor ligands, late-stage follow-up (AID 602463)
# conditionNotes: measured here: PAMPA permeability at pH 6.2; stronger effect = higher value
observable: permeability pH 6.2

[Q] Please give the measured permeability pH 6.2 for this compound: `CC(=O)c1ccc2c(c1)[C@@H]1C=CC[C@@H]1[C@H](c1cc3c(cc1Br)OCO3)N2`
[A] 565 10^-6 cm/s
